Experiment: cytotoxicity in Drosophila l(2)mbn cells
Format: cell-based
Condition description: Drosophila, l(2)mbn cells (larval blood cell-derived), 1 µM, replicate 2, relative to DMSO 1%, read-out: % viability, viability 2
Entries whose viability at 1 µM is below 80% take yes (1); entries at or above 80% take no (0).

Past entries and their recorded results:
Compound	Cat
C=C1CCC2C(C)(CCC=C(C)C)C(O)CCC2(C)C1Cc1c(OC)oc(CO)c(C(=O)OC)c1=O (centres unmarked) [Compound 13]	no (0)
C=C1CCC2C(C)(CC(=O)C=C(C)C)C(O)CCC2(C)C1Cc1c(OC)oc(CO)c(C)c1=O (centres unmarked) [Compound 19]	no (0)
C=C1CCC2C(C)(CCC=C(C)C)C(O)CCC2(C)C1Cc1c(OC)oc(CO)c(C)c1=O (centres unmarked) [Compound 12]	no (0)
C=C1CC[C@H]2[C@]3(C)C[C@H](C=C(C)C)O[C@H]3CC[C@]2(C)[C@@H]1Cc1c(O)c(C)c(C)oc1=O [Compound 6, subglutinol B]	yes (1)
C=C1CCC2C(C)(CCC=C(C)C)C(O)CCC2(C)C1Cc1c(OC)oc(C)c(C(=O)OC)c1=O (centres unmarked) [Compound 14]	no (0)

Record C=C1CCC2C(C)(CCC=C(C)C)C(=O)CCC2(C)C1Cc1c(O)c(C)c(C)oc1=O (centres unmarked) [Compound 8] : is its viability at 1 µM strictly below 80%? no (0)

Bench note: check whether C=C1CCC2C3(C)CC(C=C(C)C)OC3CCC2(C)C1Cc1c(OC)oc(C)c(C)c1=O (centres unmarked) [Compound 23] shows viability at 1 µM below 80% yes (1)

Entry source: paper PMC7156458
